- Tested on: SNB-19
- method-description: NCI tumour cell line growth inhibition, 48 h
The source made the active and inactive calls. Rule as the data show it: active = GI50 up to about 1.1 µM and inactive = higher.
# GI50 annotations
observed-property: GI50

{"columns": ["molecule", "observed-property", "recorded-result"],
 "data": [
  ["O=C1c2cc3c(cc2CC12Cc1cc4c(cc1C2=O)CCC4)CCC3", "GI50", "> 100 µM (inactive)"],
  ["COc1ccc2c3c1OC1C(OC)(OC)C=C[C@@]4(Br)[C@@H](C2)N(CC2CC2)CC[C@]314 (stereo not given in full)", "GI50", "> 100 µM (inactive)"],
  ["O=C1/C(=C/c2ccc([N+](=O)[O-])cc2)CCCc2ccccc21", "GI50", "32.1 µM (inactive)"],
  ["CC1SC(c2ccccc2)N(Nc2c3ccccc3nc3ccccc23)C1=O (stereo not given)", "GI50", "> 100 µM (inactive)"],
  ["CC1(C)C(=O)N(CCCCCCN2C(=O)C(C)(C)c3ccccc32)c2ccccc21", "GI50", "68.5 µM (inactive)"],
  ["O=[N+]([O-])c1ccc(Nc2cccc3c4cc[nH]c(-c5ccccc5)c-4nc23)c([N+](=O)[O-])c1", "GI50", "> 100 µM (inactive)"],
  ["CC(=O)CC(=O)Nc1ccc(OS(N)(=O)=O)cc1", "GI50", "> 100 µM (inactive)"],
  ["CCOC(=O)/C(C#N)=C(N)/C(=N\\Nc1cccc(C(F)(F)F)c1)C(=O)OCC", "GI50", "> 100 µM (inactive)"],
  ["CC(C)(C)c1ccc(CN2CCN(C(c3ccccc3)c3ccc(Cl)cc3)CC2)cc1 (stereo not given)", "GI50", "> 100 µM (inactive)"],
  ["O=C(Oc1ccc(S(=O)(=O)F)cc1F)c1ccccc1Cl", "GI50", "30.5 µM (inactive)"]
]}

Recorded values, source ChEMBL document CHEMBL1201862.
